Test system: HCC-2998 colon
Test: NCI-60 one-dose screen, 48 h (100 = growth as untreated, 0 = no growth, -100 = all killed)
Conditions: 10 µM unless noted
About 83,000 compounds went through this panel and 20% of them were active in at least one assay; those are over-represented in the sample as a whole.
endpoint: growth (%)
One number for each entry, in %.

The cases that follow already have their growth on record.
Would you kindly share the measured growth for `O=C1NC(=O)/C(=C/c2ccc(OCc3cc4ccccc4nc3Cl)cc2)S1` ?
105

// query: `COc1ccc(-c2nnc(SCc3ccc(O)c4ncccc34)o2)cc1`
45.2

// query: `C=C(C)[C@@H]1CC[C@]2(C(=O)ON)CC[C@]3(C)[C@H](CC[C@@H]4[C@@]5(C)C/C(=C/c6ccc(Br)cc6)C(=O)C(C)(C)[C@@H]5CC[C@]43C)[C@@H]12`
82.9

// query: `C=CCn1c(SCC(=O)Nc2cccc(C(=O)/C=C/c3ccc(Br)cc3)c2)nc2ccccc2c1=O`
93.8

// query: `COc1ccc(-c2cc(-c3cccc4ccccc34)n3c(n2)nc2ccccc23)cc1`
88.3

// query: CC(C)(C)n1nnnc1C(Nc1nccs1)c1cc2cccc3ccc4cccc1c4c32 (centres undefined)
113

Please state growth for every compound in the list that follows.
1. COc1ccc(NS(=O)(=O)c2ccc(-c3cnc(C4CC4)o3)cc2)cc1Cl
2. N#C/C(=C\c1ccc(Cl)cc1Cl)C(N)=O
3. O=C1Nc2ccc(Cl)cc2/C1=C/c1ccc(OCc2ccc(F)cc2)cc1
4. COc1ccc(Cn2cc3c(c2-c2ccccc2)CCCc2cnoc2-3)cc1
5. Cn1c2ccc(Br)cc2c2c3c(c4c5cc(F)ccc5oc4c21)C(=O)N(O)C3=O
6. COc1ccc2c(C3=C(c4cn(C)c5ccccc45)C(=O)NC3=O)coc2c1
7. COc1ccccc1N1CCN(C2=NN=C(c3cccc(Cl)c3)c3ccccc3C2)CC1
8. O=C(N/N=C\c1ccc(Cl)cc1)c1ccc2nc(-c3ccc(Br)cc3)[nH]c2c1

1: 53.1; 2: 103; 3: 102; 4: 87.9; 5: 94.6; 6: 28.2; 7: 8.13; 8: -42.5

Please state growth for every compound in the list that follows.
1. Cc1ccc(NC(=O)N[C@@H](Cc2cc(F)cc(F)c2)C(=O)NC2C(=O)N3CCC[C@H]3C(=O)N3CCCC[C@H]3C(=O)N[C@@H](C)C(=O)N3C[C@H](C)C[C@H]3C(=O)O[C@H]2C)c(F)c1 (some centres undefined)
2. CN1CCN(c2nc(-c3cnc4ccccc4n3)cc3ccccc23)CC1
3. Brc1cccc(/C=N/Nc2nc(N/N=C/c3cccc(Br)c3)nc(N3CCOCC3)n2)c1
4. O=C(Nc1ccc(-c2nc(-c3cccc(O)c3)c(-c3ccnc(Br)c3)[nH]2)cc1)c1ccccc1
5. CCCCCCNC(=O)Oc1ccc(/C(=C(\C)c2ccc(Cl)cc2)c2ccc(OCCN(C)C)cc2)cc1

1. 23.9
2. -26.4
3. 31.5
4. 26.3
5. 71.4
